Attribution: patent US12435061B2

Entries annotated with measured IC50
# target entity: hTRPV3 (Homo sapiens (Human))
# assay explanation: Whole-cell patch clamp, hTRPV3 Phase 1 / Phase 2 currents
# Assay type: cell-based
# experimental parameters: Phase 1 current; read-out: hTRPV3 (nM) (Phase 1)

[
  {
    "smiles structure": "CN(C)C(=O)c1ccccc1-c1ccc(N2CC[C@H](Oc3ccc(C(F)(F)F)cn3)C2)c(CO)c1",
    "IC50": "~1290 nM"
  },
  {
    "smiles structure": "N#Cc1ccccc1-c1ccc(N2CC[C@H](Oc3ccc(C(F)(F)F)cn3)C2)c(CO)n1",
    "IC50": "~38.5 nM"
  },
  {
    "smiles structure": "COc1cc(-c2ccccc2Cl)ccc1N1CC[C@@H](Oc2ccc(C(F)(F)F)cn2)C1",
    "IC50": "~2900 nM"
  }
]

----------
# target entity: hTRPV3 (Homo sapiens (Human), UniProt Q8NET8)
# Sequence (Q8NET8 whole entry): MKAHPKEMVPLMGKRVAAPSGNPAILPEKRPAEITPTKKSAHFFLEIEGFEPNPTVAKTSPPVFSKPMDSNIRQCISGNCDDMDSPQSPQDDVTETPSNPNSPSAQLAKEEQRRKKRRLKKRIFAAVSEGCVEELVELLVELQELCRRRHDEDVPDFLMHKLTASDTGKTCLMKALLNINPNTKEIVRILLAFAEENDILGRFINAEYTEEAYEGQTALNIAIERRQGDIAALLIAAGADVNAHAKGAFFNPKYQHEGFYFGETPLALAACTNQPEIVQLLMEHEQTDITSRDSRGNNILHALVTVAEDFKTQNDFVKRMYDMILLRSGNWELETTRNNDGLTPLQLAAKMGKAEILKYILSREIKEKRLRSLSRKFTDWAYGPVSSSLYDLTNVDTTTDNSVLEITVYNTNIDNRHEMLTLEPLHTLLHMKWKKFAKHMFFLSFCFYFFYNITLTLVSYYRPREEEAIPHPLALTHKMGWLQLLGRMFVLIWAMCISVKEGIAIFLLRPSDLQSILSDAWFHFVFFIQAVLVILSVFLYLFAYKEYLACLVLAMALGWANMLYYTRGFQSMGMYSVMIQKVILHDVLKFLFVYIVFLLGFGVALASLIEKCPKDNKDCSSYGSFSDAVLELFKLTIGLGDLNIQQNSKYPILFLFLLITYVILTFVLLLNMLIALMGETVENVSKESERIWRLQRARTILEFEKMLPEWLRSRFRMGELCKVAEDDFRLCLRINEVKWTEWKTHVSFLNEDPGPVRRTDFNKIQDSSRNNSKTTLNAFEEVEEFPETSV
# assay explanation: Whole-cell patch clamp, hTRPV3 Phase 1 / Phase 2 currents
# Assay type: cell-based
# experimental parameters: Phase 1 current; read-out: hTRPV3 (nM) (Phase 1)
Entries annotated with measured IC50

[
  {
    "molecule": "OCCc1cc(C(O)c2ccc(Cl)cc2)ccc1N1CC[C@H](Oc2ncccc2Cl)C1 (some centres unmarked) [Compound 1-292]",
    "target entity": "hTRPV3 (Homo sapiens (Human), UniProt Q8NET8)",
    "IC50": "~4900 nM"
  },
  {
    "molecule": "CCOC(=O)COc1cc(-c2ccccc2)ccc1N1CC[C@H](Oc2ccc(C(F)(F)F)cn2)C1 [Compound 1-134]",
    "target entity": "hTRPV3 (Homo sapiens (Human), UniProt Q8NET8)",
    "IC50": "~4820 nM"
  },
  {
    "molecule": "OCc1cc(-c2ccccc2)ccc1N1CC[C@@H](Oc2ccc(C(F)(F)F)cn2)C1 [Compound 1-110]",
    "target entity": "hTRPV3 (Homo sapiens (Human), UniProt Q8NET8)",
    "IC50": "710 nM"
  },
  {
    "molecule": "O=C1C(Oc2ccc3ccccc3n2)CCN1c1cccc2ccccc12 (centres unmarked) [Compound 1-101]",
    "target entity": "hTRPV3 (Homo sapiens (Human), UniProt Q8NET8)",
    "IC50": "> 1000 nM"
  },
  {
    "molecule": "NC(=O)c1cc(-c2ccccn2)ccc1N1CC[C@H](Oc2ccc(C(F)(F)F)cn2)C1 [Compound 1-81]",
    "target entity": "hTRPV3 (Homo sapiens (Human), UniProt Q8NET8)",
    "IC50": "> 3200 nM"
  },
  {
    "molecule": "NC(=O)c1cc(-c2ccccc2)ccc1N1CC[C@@H](Oc2ncccc2Cl)C1 [Compound 1-75]",
    "target entity": "hTRPV3 (Homo sapiens (Human), UniProt Q8NET8)",
    "IC50": "~2300 nM"
  },
  {
    "molecule": "OCc1ccccc1-c1ccc(N2CC[C@H](Oc3ccc(C(F)(F)F)cn3)C2)c(CO)c1 [Compound 1-174]",
    "target entity": "hTRPV3 (Homo sapiens (Human), UniProt Q8NET8)",
    "IC50": "> 320 nM"
  },
  {
    "molecule": "OCc1cc(C2CCOCC2)ccc1N1CC[C@H](Oc2ccc(C(F)(F)F)cn2)C1 [Compound 1-276]",
    "target entity": "hTRPV3 (Homo sapiens (Human), UniProt Q8NET8)",
    "IC50": "> 3200 nM"
  },
  {
    "molecule": "OCc1cc(-c2ccccc2)ccc1N1CC[C@H](Oc2ccc(Cl)cn2)C1 [Compound 1-147]",
    "target entity": "hTRPV3 (Homo sapiens (Human), UniProt Q8NET8)",
    "IC50": "171 nM"
  },
  {
    "molecule": "OCc1cc(Oc2cccc(OC(F)(F)F)c2)ccc1N1CC[C@H](Oc2ccccn2)C1 [Compound 1-307]",
    "target entity": "hTRPV3 (Homo sapiens (Human), UniProt Q8NET8)",
    "IC50": "~59.5 nM"
  },
  {
    "molecule": "COc1ccccc1Oc1ccc(N2CC[C@H](Oc3ncccc3F)C2)c(CO)c1 [Compound 1-346]",
    "target entity": "hTRPV3 (Homo sapiens (Human), UniProt Q8NET8)",
    "IC50": "612 nM"
  },
  {
    "molecule": "CC(C)(C)OC(=O)N1CC=C(c2ccc(N3CC[C@H](Oc4ccc(C(F)(F)F)cn4)C3)c(CO)c2)CC1 [Compound 1-272]",
    "target entity": "hTRPV3 (Homo sapiens (Human), UniProt Q8NET8)",
    "IC50": "> 3200 nM"
  },
  {
    "molecule": "CC(C)Oc1ccccc1N1CC[C@H](Oc2ccc3cc(Cl)ccc3n2)C1 [Compound 1-76]",
    "target entity": "hTRPV3 (Homo sapiens (Human), UniProt Q8NET8)",
    "IC50": "> 3200 nM"
  },
  {
    "molecule": "Oc1cc(-c2ccccc2Cl)ccc1N1CC[C@@H](Oc2ccc(C(F)(F)F)cn2)C1 [Compound 1-113]",
    "target entity": "hTRPV3 (Homo sapiens (Human), UniProt Q8NET8)",
    "IC50": "~97.5 nM"
  }
]

----------
Entries annotated with measured IC50
# target entity: hTRPV3 (Homo sapiens (Human), UniProt Q8NET8)
# assay explanation: Whole-cell patch clamp, hTRPV3 Phase 1 / Phase 2 currents
# Assay type: cell-based
# experimental parameters: Phase 1 current, human TRPV3; read-out: hTRPV3 (nM) Phase 1
property label: IC50

[
  {
    "compound": "O=C(c1ncccc1Cl)N1CCC(c2ccc(C(O)c3ccccc3F)cc2CO)C1 (stereo not drawn) [Compound 2-5]",
    "property label": "IC50",
    "result": "> 3200 nM"
  },
  {
    "compound": "CC(C)c1ccccc1-c1ccc(C2CCN(C(=O)c3ncccc3Cl)C2)c(CO)c1 (stereo not drawn) [Compound 2-36]",
    "property label": "IC50",
    "result": "39.3 nM"
  },
  {
    "compound": "CC(C)c1ccccc1Oc1ccc(C2CC(=O)N(Cc3ccc(Cl)cn3)C2)c(C(N)=O)c1 (stereo not drawn) [Compound 2-102]",
    "property label": "IC50",
    "result": "~2150 nM"
  },
  {
    "compound": "CC(C)c1ccccc1-c1ccc(C2CCN(Cc3ccc(F)cn3)C2)c(CO)c1 (stereo not drawn) [Compound 2-95]",
    "property label": "IC50",
    "result": "582 nM"
  },
  {
    "compound": "CC(C)c1ccccc1Oc1ccc(C2CCN(C(=O)c3ncccc3Cl)C2)c(C(=O)O)c1 (stereo not drawn) [Compound 2-25]",
    "property label": "IC50",
    "result": "> 3200 nM"
  },
  {
    "compound": "CCc1c(C)cccc1-c1ccc(C2CCN(C(=O)c3ccc(Cl)cn3)C2)c(CO)c1 (stereo not drawn) [Compound 2-67]",
    "property label": "IC50",
    "result": "0.698 nM"
  }
]

----------
# target entity: hTRPV3 (Homo sapiens (Human))
# assay explanation: Whole-cell patch clamp, hTRPV3 Phase 1 / Phase 2 currents
# Assay type: cell-based
# experimental parameters: Phase 2 current, inward, whole-cell patch clamp; read-out: hTRPV3 Patch P2 Inwd

[
  {
    "compound": "O=C(c1ccc(N2CC[C@H](Oc3ccccn3)C2)c(CO)c1)c1ccccc1Cl",
    "IC50": "> 1 µM"
  },
  {
    "compound": "NC(=O)c1cc(-c2ccccn2)ccc1N1CC[C@@H](Oc2ccccn2)C1",
    "IC50": "> 1 µM"
  },
  {
    "compound": "O=C1C(Oc2ccc3ccccc3n2)CCN1c1cccc2ccccc12 (stereo not shown)",
    "IC50": "> 1 µM"
  },
  {
    "compound": "O=C1C(Oc2ccc3ccccc3n2)CCN1c1ccccc1Cl (stereo not shown)",
    "IC50": "> 1 µM"
  }
]

----------
# target entity: hTRPV3 (Homo sapiens (Human), UniProt Q8NET8)
# assay explanation: Whole-cell patch clamp, hTRPV3 Phase 1 / Phase 2 currents
# Type: cell-based
# experimental parameters: Phase 2 current, inward, whole-cell patch clamp; read-out: hTRPV3 Patch P2 Inwd
property label: IC50

[
  {
    "smiles structure": "CC(C)Oc1cc(-c2ccccc2)ccc1N1CC[C@H](Oc2ccc(C(F)(F)F)cn2)C1",
    "property label": "IC50",
    "result": "> 1000 nM"
  },
  {
    "smiles structure": "COCc1ccccc1-c1ccc(N2CC[C@H](Oc3ccc(C(F)(F)F)cn3)C2)c(CO)c1",
    "property label": "IC50",
    "result": "100 to 1000 nM"
  },
  {
    "smiles structure": "NC(=O)c1cc(-c2ccccc2)cnc1N1CC[C@@H](Oc2ncccc2Cl)C1",
    "property label": "IC50",
    "result": "> 1000 nM"
  }
]
